- tested_target: UniProtKB P14061
- method_summary: Inhibition of 17beta-HSD1 in human T47D cells assessed as decrease in transformation of [14C]estrone to [14C]-estradiol at 0.01 uM after 24 hrs by thin layer chromatography
- Assay type: cell-based
Known inhibition of a selection of molecules
measured_property: inhibition (%)

# structure_string, measured_property, experimental_value
data = [
    ("C[C@]12CC[C@@H]3c4ccc(CO)cc4CC[C@H]3[C@@H]1C[C@H](Cc1cccc(C(N)=O)c1)[C@@H]2O", "inhibition", 14),
    ("C[C@]12CC[C@@H]3c4ccc(O)cc4CC[C@H]3[C@@H]1C[C@H](Cc1cccc(C(N)=O)c1)[C@@H]2O", "inhibition", 35),
    ("C[C@]12CC[C@@H]3c4ccc(CCO)cc4CC[C@H]3[C@@H]1C[C@H](Cc1cccc(C(N)=O)c1)[C@@H]2O", "inhibition", 7),
    ("C[C@]12CC[C@@H]3c4ccc(CCBr)cc4CC[C@H]3[C@@H]1C[C@H](Cc1cccc(C(N)=O)c1)[C@@H]2O", "inhibition", 23),
    ("C[C@]12CC[C@@H]3c4ccc(CBr)cc4CC[C@H]3[C@@H]1C[C@H](Cc1cccc(C(N)=O)c1)[C@@H]2O", "inhibition", 20),
]

###

- tested_target: UniProt P14061
- Sequence (whole entry): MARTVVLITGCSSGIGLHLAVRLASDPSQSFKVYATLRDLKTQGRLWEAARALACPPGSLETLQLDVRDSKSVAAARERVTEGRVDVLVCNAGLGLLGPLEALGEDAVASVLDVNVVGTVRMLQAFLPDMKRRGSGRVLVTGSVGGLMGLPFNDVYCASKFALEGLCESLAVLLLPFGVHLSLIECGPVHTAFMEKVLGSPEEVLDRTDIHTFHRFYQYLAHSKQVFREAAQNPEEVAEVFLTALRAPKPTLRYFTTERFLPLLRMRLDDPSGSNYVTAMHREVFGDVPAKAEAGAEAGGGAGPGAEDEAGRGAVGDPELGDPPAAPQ
- method_summary: Inhibition of 17beta-HSD1 in human T47D cells assessed as decrease in transformation of [14C]estrone to [14C]-estradiol at 0.1 uM after 24 hrs by thin layer chromatography
- Type: cell-based

# structure_string, inhibition
rows = [
    ("C[C@]12CC[C@@H]3c4ccc(O)cc4CC[C@H]3[C@@H]1C[C@H](Cc1cccc(C(N)=O)c1)[C@@H]2O", "66%"),
    ("C[C@]12CC[C@@H]3c4ccc(CBr)cc4CC[C@H]3[C@@H]1C[C@H](Cc1cccc(C(N)=O)c1)[C@@H]2O", "36%"),
    ("C[C@]12CC[C@@H]3c4ccc(CCBr)cc4CC[C@H]3[C@@H]1C[C@H](Cc1cccc(C(N)=O)c1)[C@@H]2O", "49%"),
    ("C[C@]12CC[C@@H]3c4ccc(CCO)cc4CC[C@H]3[C@@H]1C[C@H](Cc1cccc(C(N)=O)c1)[C@@H]2O", "17%"),
]
